target: NDM-1 (Klebsiella pneumoniae); assay: Enzyme activity: determination of IC50, fluorescence assay with CCF2-FA substrate; assay type: biochemical; conditions: NDM-1 enzyme 1 pM, CCF2-FA 1.25 μM, 2 hours at 25° C.; read-out: NDM1 IC50
Sequence (C7C422 29-270, looked up, species assumed): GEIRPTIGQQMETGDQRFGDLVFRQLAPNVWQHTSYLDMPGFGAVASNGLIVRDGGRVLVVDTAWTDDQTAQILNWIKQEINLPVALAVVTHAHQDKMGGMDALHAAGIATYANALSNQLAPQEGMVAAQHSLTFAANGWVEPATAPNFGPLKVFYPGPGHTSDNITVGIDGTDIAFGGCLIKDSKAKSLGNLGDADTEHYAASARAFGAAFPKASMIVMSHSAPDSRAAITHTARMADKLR
pIC50: −log10 of the molar value.
Could you label it label 1 if measured pIC50 is 7 or higher, and label 0 otherwise?

Smiles str: CCC[C@H](C(=O)O)[C@H](Cc1cnc(SC)nc1)c1nnn[nH]1
Qualitative label: label 0
//
Smiles str: CCC[C@H](C(=O)O)[C@H](Cc1ccc(CCCO)cc1)c1nn[nH]n1
Qualitative label: label 1

---

biological target: NDM-1 (Klebsiella pneumoniae); assay: Enzyme activity: determination of IC50, fluorescence assay with CCF2-FA substrate; type: biochemical; conditions: NDM1 IC50, enzyme 1 pM, CCF2-FA 1.25 μM, 2 hours at 25° C.
log10 IC50 by entry:
Measurement kind: log10 IC50 (log10 of the value in nM)

Smiles str: CC(C)C[C@H](C(=O)O)[C@H](Cc1ccc(C2=CCNCC2)cn1)c1nn[nH]n1
Measured on: NDM-1 (Klebsiella pneumoniae)
Number: 2.40
//
Smiles str: CCCC[C@@H](C(=O)O)[C@@H](Cc1ccc(Br)cc1)c1nnn[nH]1
Measured on: NDM-1 (Klebsiella pneumoniae)
Number: 3.67
//
Smiles str: CC(C)[C@H](C(=O)O)[C@H](Cc1ccc(C2=CCNCC2)cc1)c1nnn[nH]1
Measured on: NDM-1 (Klebsiella pneumoniae)
Number: 0.95
//
Smiles str: CCC[C@H](C(=O)O)[C@H](Cc1ccc(N2CCNCC2)nc1)c1nnn[nH]1
Measured on: NDM-1 (Klebsiella pneumoniae)
Number: 2.85
//
Smiles str: CCC[C@H](C(=O)O)[C@H](Cc1ccc(C2=CCNCC2)cn1)c1nnn[nH]1
Measured on: NDM-1 (Klebsiella pneumoniae)
Number: 3.18
